- ASSAY: Pharmacokinetics in plasma of mice (LC-MS/MS)
- MEASUREMENT_CONTEXT: male, NOD/SCID, mouse, in vivo, ip, 50 mg/kg
ASSAY_METRIC: AUC(0-t) (µg·h/mL)
Give the number; µg·h/mL is assumed, so skip it.

[in] Suppose we examine the compound Cc1sc2c(c1C)C(c1ccc(Cl)cc1)=N[C@@H](CC(=O)O[C@H](C)c1ccc(C(=O)Nc3ccccc3N)cc1)c1nnc(C)n1-2 ; what AUC(0-t) value has been reported?
[out] 159

====

- Tested on: BCBL-1 cells
- ASSAY: RNA-Sequencing of compound-treated vs vehicle-treated cells
- Format: cell-based, human
- MEASUREMENT_CONTEXT: gene expression, treated vs vehicle BCBL-1 cells
- Experimental: RNA-Sequencing (RNA-Seq) of triplicate samples was performed by BGI Americas Corporation using their unique DNBSEQ sequencing technology. The completed RNA-Sequencing data was submitted to NCBI Sequence Read Archive (SRA# # PRJNA813422). Raw sequencing reads were analyzed using the RSEM software (version 1.3.0; human GRCh38 genome sequence and annotation) and gene expression was quantified as previously described. […]
ASSAY_METRIC: Ratio, IRF7
Lab note: write the figure by itself, no unit.

Example entries and their recorded answers appear below.
COMPOUND	TARGET_DESC	VALUE
Cc1sc2c(c1C)C(c1ccc(Cl)cc1)=N[C@@H](CC(=O)O[C@@H](C)c1ccc(C(=O)Nc3ccccc3N)cc1)c1nnc(C)n1-2	BCBL-1 cells	28.87
Cc1sc2c(c1C)C(c1ccc(Cl)cc1)=N[C@@H](CC(=O)O[C@H](C)c1ccc(C(=O)Nc3ccccc3N)cc1)c1nnc(C)n1-2	BCBL-1 cells	23.79
Cc1sc2c(c1C)C(c1ccc(Cl)cc1)=N[C@@H](CC(=O)OC(C)(C)C)c1nnc(C)n1-2 [(+)-JQ1, reference compound]	BCBL-1 cells	52.67

Now consider a different compound.
[in] Suppose we examine the compound O=C(CCCCCCC(=O)Nc1ccccc1)NO [SAHA, suberoylanilide hydroxamic acid, reference compound] ; what Ratio, IRF7 value has been reported?
[out] 5.624

====

- ASSAY: Pharmacokinetics in plasma of mice (LC-MS/MS)
- MEASUREMENT_CONTEXT: male, NOD/SCID, mouse, in vivo, po, 50 mg/kg
ASSAY_METRIC: AUC(0-t) (ng·h/mL)
Give the number; ng·h/mL is assumed, so skip it.

[in] Suppose we examine the compound Cc1sc2c(c1C)C(c1ccc(Cl)cc1)=N[C@@H](CC(=O)O[C@H](C)c1ccc(C(=O)Nc3ccccc3N)cc1)c1nnc(C)n1-2 ; what AUC(0-t) value has been reported?
[out] 39000

====

- Test system: BCBL-1 cells
- ASSAY: RNA-Sequencing of compound-treated vs vehicle-treated cells
- Format: cell-based, human
- MEASUREMENT_CONTEXT: gene expression, treated vs vehicle BCBL-1 cells
ASSAY_METRIC: Ratio, ARRDC3

Example entries and their recorded answers appear below.
COMPOUND	VALUE
O=C(CCCCCCC(=O)Nc1ccccc1)NO [SAHA, suberoylanilide hydroxamic acid, reference compound]	7.834
Cc1sc2c(c1C)C(c1ccc(Cl)cc1)=N[C@@H](CC(=O)O[C@@H](C)c1ccc(C(=O)Nc3ccccc3N)cc1)c1nnc(C)n1-2	41.32
Cc1sc2c(c1C)C(c1ccc(Cl)cc1)=N[C@@H](CC(=O)OC(C)(C)C)c1nnc(C)n1-2 [(+)-JQ1, reference compound]	27.58

[in] Suppose we examine the compound Cc1sc2c(c1C)C(c1ccc(Cl)cc1)=N[C@@H](CC(=O)O[C@H](C)c1ccc(C(=O)Nc3ccccc3N)cc1)c1nnc(C)n1-2 ; what Ratio, ARRDC3 value has been reported?
[out] 30.72
